- System: MCF7 breast
- assay: NCI-60 one-dose screen, 48 h (100 = growth as untreated, 0 = no growth, -100 = all killed)
- applied_conditions: 10 µM unless noted
The panel holds about 83,000 compounds, 20% with a hit somewhere; the sample as a whole holds those more often.
Okay, here is how we bin by growth: A: < 10%; B: ≥ 10% and < 70%; C: ≥ 70%

• O=C(Nc1nccs1)c1noc2ccccc12 = B
• CCOC(=O)c1c(C)nc2c(c1N)/C(=C/c1ccccn1)C(=O)N2Cc1ccccc1 = A
• Cc1cc(C)nc(NS(=O)(=O)c2ccc(Nc3ccc4c5c(n(CCCN(C)C)c(=O)c4c3)-c3ccccc3C5=O)cc2)n1 = B
• CCCCOc1nc2ccc(C)cc2cc1/C=C/C(=O)/C=C/c1ccc2c(c1)OCO2 = B
• CCOCc1cc(C(C)(C)C)ccc1O = C
• Cc1ccc(C(=O)/C(=C/c2ccc([N+](=O)[O-])cc2)S(=O)Cc2ccccc2)cc1 (stereo not given) = A
• N#Cc1c(-c2ccc(Cl)cc2)cc(-c2cc3ccccc3o2)nc1SCC(=O)c1ccc(Cl)cc1 = C
• CCCNc1nc(C)[nH]c(=O)c1S = C
• CO[C@@]12C=C[C@@]34CCC(=O)N3c3ccccc3[C@@H](O1)C4C2 = C
• COc1ccc(C2CC(c3ccc(OC)cc3O)=NN2c2ccc(S(N)(=O)=O)cc2)cc1 (stereo not given) = B
• Cc1c(Cl)cccc1NC(=O)c1sc2nc3c(cc2c1N)COCC3 = B
• COc1cc(/C=C/C(=O)c2ccc(NC(=O)CSc3nnc(-c4cc(OC)c(OC)c(OC)c4)n3-c3ccccc3)cc2)cc(OC)c1OC = B
• CCCCC1=c2c([nH]c3ccc(OC)cc23)=NC2C=CC=NC12 (stereo not given) = B
• COc1ccc2oc(=O)cc(-c3c(C#N)c(N)n4nc(N)c(C#N)c4c3C#N)c2c1 = C
• C[C@@H]1C(=O)[C@@H]2C[C@@H](O)[C@@H](O)C[C@]2(C)[C@H]2CC[C@@]3(C)C(=C12)CC[C@@H]3[C@@](C)(O)[C@H](O)CCC(C)(C)O = C
• C=CCn1c(CN2CCN(c3cc4c(cc3F)c(=O)c(C(=O)O)cn4C3CC3)CC2)n[nH]c1=S = C
• COc1cccc(NC(=O)Nc2ccc(Oc3ncnc4[nH]c(C)c(C)c34)cc2)c1 = B
• CCC1=C[C@H]2CN(CCc3c([nH]c4ccccc34)[C@@](C(=O)OC)(c3cc4c(cc3OC)N(C)[C@H]3[C@@](O)(C(=O)OC)[C@H](OC(C)=O)[C@]5(CC)[C@@H]6C[C@@H]6CN6CC[C@]43[C@@H]65)C2)C1 = A
• CSc1nc(-c2ccc(F)cc2)c(C#N)c(N2CCOCC2)n1 = C
• Nc1ccc(C2=NN(C(=O)c3cc(-c4ccc(Cl)cc4)nc4ccccc34)C(c3ccc(Cl)cc3)C2)cc1 (stereo not given) = B
• COc1cc2nc3c(=O)n(-c4ccc(C#N)cc4)cnn3c(=O)c2cc1OC = C
• COc1ccc(/C=C/C(=O)c2ccc(NC(=O)CSc3nnc(-c4ccc(OC)c(OC)c4)n3-c3ccccc3)cc2)cc1 = A
• O=C(Nc1cc(Nc2ncccc2-c2ncnc3nc[nH]c23)ccc1F)c1cc(C(F)(F)F)cc(C(F)(F)F)c1 = A
• COc1ccc(-c2cc(-c3nnc(SCC(=O)Nc4ccc(C(C)=O)cc4)o3)c3ccccc3n2)cc1 = A
• COc1cc(C(=O)Nc2cc(OC)c3ccn(C)c3c2)cc2c1C[C@]1(C)CC[C@@H](O)C(C)(C)[C@H]1O2 = A
• C/C(=C\c1cnc(C)s1)[C@@H]1C[C@@H]2O[C@@H]2CCC[C@H](C)[C@H](O)[C@@H](C)C(=O)C(C)(C)[C@@H](O)CC(=O)O1 = B
• CN1CCN(C(=O)[C@@]2(C)CC[C@]3(C)CC[C@]4(C)C(=CC[C@@H]5[C@@]6(C)CC[C@H](OC(=O)c7cccnc7)C(C)(C)[C@@H]6CC[C@]54C)[C@@H]3C2)CC1 = B
• N#Cc1ccc(C2C3=C(CCCC3=O)OC3=C2C(=O)c2ccccc2C3=O)cc1 (stereo not given) = A
• CC(C)C1=C[C@@]23CC[C@H]4[C@](C)(COCCC#N)CCC[C@]4(C)[C@H]2C[C@@H]1[C@@H]1[C@H]3[C@@H](OCCC#N)CC[C@@H]1OCCC#N = A
• COC(=O)[C@]1(C)CCC[C@]2(C)[C@H]3C[C@H]4C(C(C)C)=C[C@]3(CC[C@H]21)[C@@H]1C(=O)N(CCC#N)C(=O)[C@@H]14 = C
• O=C1[C@@H](OS(=O)(=O)CC(F)(F)F)[C@H](c2ccc(F)cn2)N1c1cc2c3ccccc3ccc2c2ccccc12 = B
• CC(=O)Nc1ccc2c(c1)Cc1cc(F)ccc1-2 = C
• C/C(=N/Nc1nc2ccccc2n1C)c1ccccn1 = A
• CC(=O)c1cnc(-c2ccccc2)nc1CBr = B
